STUDY_SYSTEM: UniProt:Q02750
Sequence (Q02750 whole entry, looked up): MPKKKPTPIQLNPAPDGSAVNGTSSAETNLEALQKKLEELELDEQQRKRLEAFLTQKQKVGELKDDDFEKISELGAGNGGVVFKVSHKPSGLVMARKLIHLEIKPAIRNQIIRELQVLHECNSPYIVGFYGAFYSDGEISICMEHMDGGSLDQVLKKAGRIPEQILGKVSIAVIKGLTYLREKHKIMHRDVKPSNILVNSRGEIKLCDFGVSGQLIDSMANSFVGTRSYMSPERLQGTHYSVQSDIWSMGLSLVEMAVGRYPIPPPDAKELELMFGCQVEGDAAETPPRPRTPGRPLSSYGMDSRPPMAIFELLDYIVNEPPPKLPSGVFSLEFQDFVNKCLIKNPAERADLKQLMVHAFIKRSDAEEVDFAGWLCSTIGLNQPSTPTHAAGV
METHOD_NOTES: radiometric filter-binding kinase assay
EXPERIMENTAL_PARAMETERS: compound 0.01 µM
Returns: string. Value is true (1) if measured residual activity is below 70%, and false (0) if it is greater than or equal to it.

Data request: Bench note: check whether "C/C(=C1/C(=O)Nc2ccc(NC(N)=O)cc21)c1ccc[nH]1" shows residual activity below 70%
Data returned: true (1)

Data request: Bench note: check whether CNC(=O)C1[C@H]2O[C@@](C)([C@@H]1N)n1c3ccccc3c3c4c(c5c6ccccc6n2c5c31)C(=O)NC4 (stereo partly specified) shows residual activity below 70%
Data returned: true (1)

Data request: Bench note: check whether COc1cc(O)c2c(c1)[C@H]1OC1C[C@H](O)[C@H](O)C(=O)/C=C\C[C@H](C)OC2=O (stereo partly specified) shows residual activity below 70%
Data returned: false (0)

Data request: Bench note: check whether "CNc1nc(-c2ccc3c(N)n[nH]c3c2)cc(N2C[C@@H](C(=O)NC3CCCCC3)CC[C@H]2C)n1" shows residual activity below 70%
Data returned: false (0)

Data request: Bench note: check whether "COc1ccc(N(C(=O)Nc2c(C)cccc2C)c2cc(Nc3ccc(N4CCN(C)CC4)cc3)ncn2)c(OC)c1" shows residual activity below 70%
Data returned: false (0)
